test: DNDI: Cytotoxicity against human MRC-5 lung fibroblast cells.; conditions: IC50
pIC50: −log10 of the molar value.
Metric name: pIC50

CCOC(=O)C(=Cc1cc(=O)c(OC)co1)C(=O)OCC :: < 4.68
COc1ccc(C(=O)O/N=C(\N)Cc2cccs2)cc1OC :: < 4.68
CCOc1c(Cl)cc(CNCCc2c[nH]c3ccccc23)cc1OC :: < 4.38
O=C(Nc1cccc(Cl)c1)O/N=C1\CC2CCC1C2 (configuration not stated) :: < 4.68
CC1CS/C(=N/c2ccc(Br)cc2)N1 (configuration not stated) :: < 4.38
Cc1cccc(NCc2ccc(O)c3ncccc23)n1 :: < 4.68
CCCCN1/C(=C/c2cc[n+](CC)c3ccccc23)C=Cc2cc(C)ccc21 :: < 4.98
CC1CC2=C(C(=O)c3ccccc3C2=O)C(C)O1 (configuration not stated) :: < 4.38
CCN(CC)CCn1nc2c3c(cccc3c1=O)-c1ccccc1-2 :: 5.84
Nc1ccc(Nc2coc3ccccc23)cc1 :: < 4.68
O=C(N/N=C/c1c(O)ccc2ccccc12)c1cc[nH]n1 :: < 4.68
c1ccc(Sc2cccc3ccccc23)c(CNC2=NCCN2)c1 :: < 4.68
CCOc1ccc(/C=N/NC(=N)N)cc1 :: < 4.38
CN1CCN(Cc2cn(-c3ccc(Cl)cc3)c3ccc(F)cc23)CC1 :: < 4.38
CC(C)(C)c1cc(/C=N/Nc2nc3ccccc3[nH]2)cc(C(C)(C)C)c1O :: < 4.68
N#Cc1c(N)nc2[nH]nc(N)c2c1-c1ccccc1 :: < 4.68
C/C(=N\NC(=O)Cc1ccc(F)cc1)c1ccccn1 :: < 5.38
Cc1ccccc1OCCn1c(=N)n(Cc2ccccc2F)c2ccccc21 :: < 4.68
N/C(=N\OC(=O)c1cccs1)c1ccccc1Cl :: < 4.68
Clc1cc2c(c3ncccc13)OCN(CC1CCCO1)C2 (configuration not stated) :: 5.17
COC(=O)N/N=C\c1ccc(-c2ccccc2Cl)o1 :: < 4.38
O=C(CC(SCc1ccco1)c1ccc(Cl)cc1)c1ccco1 (configuration not stated) :: < 4.38
Cc1ccc(C23CC4CC(CC(NC(=O)NCCN(C)C)(C4)C2)C3)cc1 :: < 4.68
Cc1ncc(CO)c(/C=N/NC(=O)c2ccc(C(C)(C)C)cc2)c1O :: 5.20
Clc1ccc(C[n+]2cc(-c3ccccc3)n3c2CCC3)c(Cl)c1 :: < 4.38
CN(C)CCCNc1nn2c(=O)c3ccccc3nc2c2ccccc12 :: < 5.38
CC(=O)CC1(O)C(=O)Nc2ccc(I)cc21 (configuration not stated) :: < 4.38
COc1ccc(Nc2nc3ccccc3c(=O)o2)cc1 :: < 4.68
CC1CCN(Cc2cc(Br)c(O)c3ncccc23)CC1 :: 5.27
Nc1nonc1C(=O)N/N=C/c1c(O)ccc2ccccc12 :: < 5.38
N=C(N)n1nc(-c2ccccc2)cc1-c1ccccc1O :: < 4.68
N=c1c2c(n(Cc3ccc(Cl)cc3Cl)c3c1CCC3)CCCC2 :: < 4.38
CC(Cc1ccccc1)[n+]1[cH-]/c(=N\C(=N\Cc2ccccc2)N(C)C)on1 (configuration not stated) :: < 4.38
Cc1nnc(N/N=C/c2cc(Br)ccc2O)nc1O :: 5.47
COCC(=O)N/N=C/c1ccc(SCC(=O)Nc2ccc3ccccc3c2)o1 :: < 4.38
O=C(CN1CCN(c2ccc(Cl)cc2)CC1)c1ccc(O)c(O)c1 :: < 4.38
O=C(/C=C/c1ccccc1)ONC(=O)c1ccc(Cl)cc1 :: < 4.68
Cc1ccc(C(OCC(C)(C)C[N+](C)(C)C)c2ccccc2)cc1 (configuration not stated) :: < 4.38
COc1ccc(C(=O)O/N=C(\N)c2ccc(OC)c(OC)c2)c(OC)c1 :: < 4.38
CCCCNCc1cc(Br)c(OCc2ccc(F)cc2)c(OC)c1 :: < 4.38
CN(C)CCn1c(=N)n(CC(O)c2ccc(Cl)c(Cl)c2)c2ccccc21 (configuration not stated) :: < 5.38
O=C(CC1(O)C(=O)Nc2ccc(Br)cc21)c1ccccc1F (configuration not stated) :: < 4.38
